We begin with a simple list: items and their reported z-score.
- procedure_text: optical density change of DRC41 E. coli – strain DRC41, OD650, 24 h, E. coli filamentation project, primary screen (AID 1093);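 note: MC1000 strain lacking acrAB efflux and sulA so SOS filamentation is blocked; test concentration not given here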
- conditions: E. coli DRC41 growth, higher = more signal, called active from +8 up or from −8 down
Note: the reply should be a number with no unit written.

Would you please look over these solved cases?
COC(=O)c1nc2oc1CC[C@@H](CO)NC(=O)N(C)Cc1cn(nn1)C[C@H](Cc1ccccc1)NC2=O
2.05
C=CC[C@]1(C(=O)O)N=C(c2ccc(OCCCO)cc2)O[C@H]1c1ccccc1CN=[N+]=[N-]
0.143

The recorded z-score for CC(C)NC(=O)[C@@]1(c2ccc([N+](=O)[O-])cc2)CC(=O)N(C(C)C)[C@@H]1c1ccc(CO)cc1 is 1.26

The recorded z-score for NC(=O)NCC#Cc1ccc2c(c1)[C@]1(C(=O)N2)[C@H](C(=O)NC[C@H](O)c2ccccc2)[C@H]2C(=O)O[C@H](c3ccccc3)[C@H](c3ccccc3)N2[C@@H]1c1ccccc1OCCO is 2.02

The recorded z-score for COC(=O)[C@@]1(Cc2ccc(OC)cc2)[C@H]2c3cc(C(=O)N(C)C)n(Cc4ccc(OC)c(OC)c4)c3C[C@H]2CN1C(=O)c1ccccc1 is -0.841

The recorded z-score for COCCOC(=O)N1C(=O)[C@@]2(c3ccccc31)[C@H](C(=O)N1CCCCCCC1)[C@H]1C(=O)O[C@H](c3ccccc3)[C@H](c3ccccc3)N1[C@@H]2c1ccccc1OCCO is -0.737

The recorded z-score for CC(c1ccccc1)C(O)C1C=CC2C(=O)N(c3ccccc3)C(=O)C2N1Nc1ccccc1F (stereo not given) is 0.198

The recorded z-score for CCCCC(=C=CC[C@H](O)c1ccccc1OCCO)C[C@H](O)c1cc(Cl)cc(Cl)c1O is -0.144

The recorded z-score for O=C1C2C=CC(C(O)c3cccc4ccccc34)N(n3cnnc3)C2C(=O)N1Cc1ccccc1 (stereo not given) is -1.18

The recorded z-score for COc1ccc([Si](C)(C)[C@@H]2[C@@H](CCO)O[C@]3(C(=O)N(Cc4ccc(N5C(=O)c6cccc7cccc5c67)cc4)c4ccccc43)[C@H]2C)cc1 is 0.631

The measurements presented in this section are drawn from PubChem BioAssay.
